SYSTEM_NAME: T1, recombinantly expressed purified soluble WNV E protein (strain 382-99), truncated form with Myc and His tags (West Nile virus strain 382-99, UniProt Q9Q6P4 291-696)
T1 construct: also called recombinant WNV-E protein; truncated E protein; not shown: Myc tag and His tag from pAdapt.myc.his
T1 sequence: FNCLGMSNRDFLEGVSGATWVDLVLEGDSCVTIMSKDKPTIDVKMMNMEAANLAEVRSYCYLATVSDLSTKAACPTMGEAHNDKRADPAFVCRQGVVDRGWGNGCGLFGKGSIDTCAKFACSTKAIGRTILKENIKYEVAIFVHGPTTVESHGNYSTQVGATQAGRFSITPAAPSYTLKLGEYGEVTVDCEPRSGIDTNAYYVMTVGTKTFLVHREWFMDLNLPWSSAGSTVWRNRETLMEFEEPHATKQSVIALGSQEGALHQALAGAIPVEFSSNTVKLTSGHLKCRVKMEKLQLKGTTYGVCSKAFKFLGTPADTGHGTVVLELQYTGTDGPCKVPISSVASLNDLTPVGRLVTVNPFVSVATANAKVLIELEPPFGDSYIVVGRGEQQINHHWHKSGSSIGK
PROCEDURE_SUMMARY: phage antibody ELISA on coated recombinant soluble WNV E protein
Classification field: enter true for OD 492nm values not below 0.08 OD 492nm, false for values below it.

[[record]]
binder = "SC04-283 (scFv) scFv: EVQLVQSGAEVKKSGESLKISCKGSGYTFNTYWIGWVRQMPGKGLEWMGIIYPGDSDTIYSPSFQGQVTISADKSISTAYLQWSSLKASDSAMYYCARLTFRRGYSGSDSFLPPGDFDYWGQGTLVTVSSGTGGSGGTGSGTGGSTDIQMTQSPSTLSASVGDRVTITCRASQSISSWLAWYQQKPGKAPNLLIYAASSLQSGVPSRFSGSGSGTDFTLTISSLQPDDSATYYCQQYNTYPLTFGGGTKVEIKR"
class_assignment = "false"

[[record]]
binder = "SC04-353 (scFv) scFv: EVQLVQSGGGVVQPGRSLRLSCAASGFTFSNYAMHWVRQAPGKGLEWVAVISYDGGNKYYADSVKGRFTMSRDNSKNTLYLQMNSLRAEDTAVYYCARDFWSGYSMVDSYYYYMDVWGKGTTVTVSSGTGGSGGTGSGTGGSTETTLTQSPGTLSLSPGERATLSCRASQSVSNTFLAWYQQKPGQAPRLLIYGASSRATGIPDRFSGSGSGTDFTLTISRLEPEDFAAYYCQQYGSSLTFGPGTKVDIKR"
class_assignment = "true"

[[record]]
binder = "SC04-299 (scFv) scFv: EVQLVETGGGVVQPGRSLRLSCAASGFTFSGYAMHWVRQAPGKGLDWVAVISYDGSEKYSADSVKGRFTISRDNSKNTLYLQMNSLRAEDTAVYYCAKESGGPIWYKYYGVDVWGQGTTVTVSSGTGGSGGTGSGTGGSTSYVLTQPPSLSAAPRQRVTISCSGSSSNIGNYGVNWYQQLPGKAPKLLIYYDDLLPSGVSDRFSGSKSGTSASLAISGLQSEDEGDYYCAAWDDTLSAWVFGGGTKLTVLG"
class_assignment = "false"

[[record]]
binder = "SC04-361 (scFv) scFv: EVQLVQSGAEVKKPGESLKISCKASGFSFSTYWIGWVRQMPGKGLEWMGIIYPADSDTRYSPSFQGQVTISADKSISTAYLQWSSLKASDTAMYYCARLRGPYYDFWNGYRETHDAFNVWGQGTMVTVSSGTGGSGGTGSGTGGSTDVVMTQSPDSLAVSLGERATINCKSSQNILDNSDNKNFLAWYQQKPGQPPKLLIYWASARESGVPDRFSGSGSGTDFTLTISSLQAEDVALYYCQQYYNTPITFGQGTRLEIKR"
class_assignment = "false"

[[record]]
binder = "SC04-271 (scFv) scFv: EVQLVETGAEVKKPGESLRISCKGSGYTFNNYWIGWVRQMPGKGLEWMGIIYPGDSDTRYSPSVQGHVTISADKSINTAYLQWSSLKASDTAVYYCARRPGYDYGFYYFDYWGQGTLVTVSSGTGGSGGTGSGTGGSTQSALTQPRSVSGSPGQSVTISCTGTSSDVGGYNYVSWYQHHPGKAPKLMIYDVSNRPLGVSNRFSGSKSGNTASLTISGLQAEDEADYYCSSYTSSSTYVFGTGTHLTVLS"
class_assignment = "true"

